Every entry's value here was drawn from paper PMC2791216.

# subject.of.test: T1, U2AF65 UHM (residues 369–475) (UniProt P26368 369-475)
# T1 construct: U2AF65 (splicing factor U2AF 65 kDa subunit), UHM domain, residues 369-475; The His6-GST tags (vector pETM30) are TEV-cleavable; 15N-labelled for the NMR experiments, unlabelled for ITC; also called U2AF65 UHM domain; source: E. coli BL21 (DE3)pLysS, purified (Ni-NTA, SEC)
# assay: ITC; 50 mM sodium phosphate buffer (pH 7.0), 150 mM NaCl, 5 mM DTT; 295 K; protein in the cell, peptide in the syringe; single-site model; averages of three measurements
# settings: both partners purified
pKd: −log10 of the molar value. Square brackets hold non-standard residues; d marks the D form. Ends that are not written are not given here. pS = N[C@@H](COP(=O)(O)O)C(=O)O
Label 1 (yes) when pKd is at or above 5; anything below gets 0 (no).

Does pKd meet or surpass 5 for ATRKRRW[pS]A (Ataxin-1 (Atx1), residues 769-777, S776 phosphorylated; also called phosphorylated Atx1 ULM; source: synthetic peptide; bought: Pepceuticals Limited) [Atx1_pS_ULM] ?
0 (no)

Threshold query (pKd >= 5) on ATRKRRW[pS]APE (Ataxin-1 (Atx1), residues 769-779, S776 phosphorylated; source: synthetic peptide; bought: Pepceuticals Limited) [Atx1_pS_ULM_PE]
0 (no)

Reported pKd at or above 5? ATRKRRWDAPE (also called S776D peptide; S776D mutant peptide; source: synthetic peptide; bought: Pepceuticals Limited) [Atx1_D_ULM_PE]
1 (yes)
